Biological target: BLK (Homo sapiens)
Construct: purchased Nanosyn (contract screening)
Sequence (P51451 whole entry): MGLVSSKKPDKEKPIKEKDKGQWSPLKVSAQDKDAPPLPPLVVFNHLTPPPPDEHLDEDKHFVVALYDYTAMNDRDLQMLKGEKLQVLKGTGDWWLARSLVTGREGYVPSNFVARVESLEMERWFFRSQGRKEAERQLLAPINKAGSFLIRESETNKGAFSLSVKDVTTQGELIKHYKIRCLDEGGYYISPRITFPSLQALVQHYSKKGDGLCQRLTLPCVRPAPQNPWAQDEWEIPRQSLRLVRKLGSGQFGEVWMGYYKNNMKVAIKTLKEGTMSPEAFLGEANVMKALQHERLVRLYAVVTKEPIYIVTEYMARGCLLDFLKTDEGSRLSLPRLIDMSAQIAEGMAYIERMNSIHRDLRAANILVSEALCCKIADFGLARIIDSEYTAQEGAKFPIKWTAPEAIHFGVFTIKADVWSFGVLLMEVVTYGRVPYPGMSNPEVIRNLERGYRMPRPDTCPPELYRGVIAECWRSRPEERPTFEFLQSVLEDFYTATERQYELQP
Test: Kinase panel enzymatic inhibition assay (Nanosyn)
Type: biochemical
Conditions: compound 5 μM; ATP at Km; 30-minute pre-incubation
Description: The disclosed compounds were tested for activity against a panel of at least 300 kinases. […]
reported property: inhibition at 5 µM

Recorded results for 2 molecules are shown here.
INSERT INTO assay_data (molecule, experimental_target, result) VALUES
  ('CCOC(=O)Nc1cn2nc(Nc3cc(NC(=O)c4cc([S+](C)[O-])n(-c5ccc(F)cc5)n4)ccc3C)ccc2n1 (stereo not drawn)', 'BLK (Homo sapiens)', '< 79%'),
  ('CNC(=O)c1cc(Oc2ccc(NC(=O)c3cc(S(C)(=O)=O)n(-c4ccc(F)cc4)n3)c(F)c2)ccn1', 'BLK (Homo sapiens)', '< 79%');

Now, please, on to the next molecule.
For this molecule ( CCOC(=O)Nc1cn2nc(Nc3cc(NC(=O)c4cc(S(C)(=O)=O)n(-c5ccc(F)cc5)n4)ccc3C)ccc2n1 ), measured inhibition at 5 µM is < 79%

Cited source: patent US20240400577A1
